target of assay: GST-Aq-NF-kB (Amphimedon queenslandica, UniProt A9Y5G7 2-389)
Sequence: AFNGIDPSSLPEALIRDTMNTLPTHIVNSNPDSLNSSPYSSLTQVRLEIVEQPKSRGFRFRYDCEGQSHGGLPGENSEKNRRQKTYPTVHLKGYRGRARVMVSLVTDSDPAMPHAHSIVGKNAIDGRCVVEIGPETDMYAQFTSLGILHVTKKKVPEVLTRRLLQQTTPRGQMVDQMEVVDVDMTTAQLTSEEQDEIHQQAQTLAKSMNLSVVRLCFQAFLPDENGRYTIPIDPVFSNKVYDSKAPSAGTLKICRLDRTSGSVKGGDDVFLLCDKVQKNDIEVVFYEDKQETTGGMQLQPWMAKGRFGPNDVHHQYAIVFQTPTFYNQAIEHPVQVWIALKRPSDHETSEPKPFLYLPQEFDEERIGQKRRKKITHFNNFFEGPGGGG
procedure text: protein-binding microarray (PBM); PBM: ~300 nM protein, 6 mM HEPES pH 7.8, 80 mM KCl, 0.5 mM EDTA, 0.5 mM EGTA, 6% glycerol, 35 ng/ul poly-dIdC, 1% milk, 1 h, room temperature; high values mean tight binding
particulars: dsDNA, one strand shown
// classify: if (binding signal < 6 z-score) true else false

                                      chain  class_assignment
0  CCGATTAACATCAGGGGGAAGGATGATGTTAATCGGGTCTTGATTCGCTTGACGCTGCTG              true
1  CCGATTAACATCAGGAGTTCCCCTGATGTTAATCGGGTCTTGATTCGCTTGACGCTGCTG             false
2  CCGATTAACATCAGGGGAATTAATGATGTTAATCGGGTCTTGATTCGCTTGACGCTGCTG             false
3  CCGATTAACATCAGGGGAGATAATGATGTTAATCGGGTCTTGATTCGCTTGACGCTGCTG              true
4  CCGATTAACATCAGGGGATCTTATGATGTTAATCGGGTCTTGATTCGCTTGACGCTGCTG             false
5  CCGATTAACATCAGGAAGACCCCTGATGTTAATCGGGTCTTGATTCGCTTGACGCTGCTG              true
6  CCGATTAACATCAGAATACCCCCTGATGTTAATCGGGTCTTGATTCGCTTGACGCTGCTG              true
7  CCGATTAACATCAAAGAATTTCCTGATGTTAATCGGGTCTTGATTCGCTTGACGCTGCTG              true

* * *

target of assay: GST-Nv-NF-kB (Cys allele) (Nematostella vectensis, UniProt E5G601 2-411)
Sequence: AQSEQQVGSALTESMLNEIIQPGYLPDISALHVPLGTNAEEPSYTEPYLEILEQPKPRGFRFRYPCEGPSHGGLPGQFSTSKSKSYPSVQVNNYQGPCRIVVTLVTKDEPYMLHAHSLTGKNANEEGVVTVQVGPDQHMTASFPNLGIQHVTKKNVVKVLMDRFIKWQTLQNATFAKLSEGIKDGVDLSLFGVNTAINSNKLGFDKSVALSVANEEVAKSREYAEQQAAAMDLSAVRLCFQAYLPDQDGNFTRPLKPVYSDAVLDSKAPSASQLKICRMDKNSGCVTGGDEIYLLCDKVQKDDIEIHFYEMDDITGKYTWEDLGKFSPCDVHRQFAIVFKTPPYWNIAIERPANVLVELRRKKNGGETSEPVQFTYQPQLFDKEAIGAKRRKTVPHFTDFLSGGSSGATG
procedure text: protein-binding microarray (PBM); PBM: ~300 nM protein, 6 mM HEPES pH 7.8, 80 mM KCl, 0.5 mM EDTA, 0.5 mM EGTA, 6% glycerol, 35 ng/ul poly-dIdC, 1% milk, 1 h, room temperature; Ap Aiptasia and Nv Nematostella (sea anemones) / Co Capsaspora / Aq Amphimedon (sponge) / Dm Drosophila / Hu human; RHD is the Rel homology domain; high values mean tight binding
particulars: dsDNA, one strand shown
// classify(record): look up binding signal in ranges A: < 4 z-score; B: ≥ 4 z-score and < 5 z-score; C: ≥ 5 z-score

>>> df
                                       chain                           target_of_assay  class_assignment
 0  CCGATTAACATCAGGGCTGCCCCTGATGTTAATCGGGTCTTGATTCGCTTGACGCTGCTG  GST-Nv-NF-kB (Cys allele) (Nematostella vectensis, UniProt E5G601 2-411)                 A
 1  CCGATTAACATCAATTTGGGAAATGATGTTAATCGGGTCTTGATTCGCTTGACGCTGCTG  GST-Nv-NF-kB (Cys allele) (Nematostella vectensis, UniProt E5G601 2-411)                 A
 2  CCGATTAACATCAGAAGATTCCCTGATGTTAATCGGGTCTTGATTCGCTTGACGCTGCTG  GST-Nv-NF-kB (Cys allele) (Nematostella vectensis, UniProt E5G601 2-411)                 B
 3  CCGATTAACATCAGGAATAACCCTGATGTTAATCGGGTCTTGATTCGCTTGACGCTGCTG  GST-Nv-NF-kB (Cys allele) (Nematostella vectensis, UniProt E5G601 2-411)                 A
 4  CCGATTAACATCAAATTCCCAGATGATGTTAATCGGGTCTTGATTCGCTTGACGCTGCTG  GST-Nv-NF-kB (Cys allele) (Nematostella vectensis, UniProt E5G601 2-411)                 A
 5  CCGATTAACATCAAATACCCCCATGATGTTAATCGGGTCTTGATTCGCTTGACGCTGCTG  GST-Nv-NF-kB (Cys allele) (Nematostella vectensis, UniProt E5G601 2-411)                 B
 6  CCGATTAACATCAAGAGTTTCCCTGATGTTAATCGGGTCTTGATTCGCTTGACGCTGCTG  GST-Nv-NF-kB (Cys allele) (Nematostella vectensis, UniProt E5G601 2-411)                 C
 7  CCGATTAACATCAAGGGAATGCCTGATGTTAATCGGGTCTTGATTCGCTTGACGCTGCTG  GST-Nv-NF-kB (Cys allele) (Nematostella vectensis, UniProt E5G601 2-411)                 A
 8  CCGATTAACATCAGGGGGGAAAATGATGTTAATCGGGTCTTGATTCGCTTGACGCTGCTG  GST-Nv-NF-kB (Cys allele) (Nematostella vectensis, UniProt E5G601 2-411)                 C
 9  CCGATTAACATCAGGGGGTGGAATGATGTTAATCGGGTCTTGATTCGCTTGACGCTGCTG  GST-Nv-NF-kB (Cys allele) (Nematostella vectensis, UniProt E5G601 2-411)                 A
10  CCGATTAACATCACGGGAATACCTGATGTTAATCGGGTCTTGATTCGCTTGACGCTGCTG  GST-Nv-NF-kB (Cys allele) (Nematostella vectensis, UniProt E5G601 2-411)                 A
11  CCGATTAACATCAGGCAGTCCCCTGATGTTAATCGGGTCTTGATTCGCTTGACGCTGCTG  GST-Nv-NF-kB (Cys allele) (Nematostella vectensis, UniProt E5G601 2-411)                 B
12  CCGATTAACATCAAGGGGGGGTATGATGTTAATCGGGTCTTGATTCGCTTGACGCTGCTG  GST-Nv-NF-kB (Cys allele) (Nematostella vectensis, UniProt E5G601 2-411)                 A
13  CCGATTAACATCATGATGGGAAATGATGTTAATCGGGTCTTGATTCGCTTGACGCTGCTG  GST-Nv-NF-kB (Cys allele) (Nematostella vectensis, UniProt E5G601 2-411)                 A
14  CCGATTAACATCAAGGGGAAGGGTGATGTTAATCGGGTCTTGATTCGCTTGACGCTGCTG  GST-Nv-NF-kB (Cys allele) (Nematostella vectensis, UniProt E5G601 2-411)                 C
